assay: qHTS assay for identifying genotoxic compounds that show differential cytotoxicity against isogenic chicken DT40 cell lines with known DNA damage response pathways - Rad54/Ku70 mutant cell line (AID 743015); details: DT40 Rad54/Ku70 mutant viability, CellTiter-Glo, 40 h; series mostly up to 66.8 µM; further: nearly all actives have a fitted effect of over 60% in size; further: potency means the concentration at half of the fitted maximal effect
Records with an inconclusive call do not appear. The source made the active and inactive calls. The call rests on the fitted dose curve; in most records, active means well fitted cell-killing curve with a large enough effect in the repeat runs; inconclusive means weak or mixed curves; inactive means no such curve, though single readings can be large or run the other way.
REPORTED_ENDPOINT: Potency

1) Oc1ccc2ccccc2c1N=Nc1ccccc1	inactive
2) NCCc1ccc(O)c(O)c1	19.4 µM (active)
3) CC[Si](OC(C)=O)(OC(C)=O)OC(C)=O	inactive
4) O=C1O[C@H](CO)[C@@H](O)[C@H](O)[C@H]1O	inactive

----------
biological target: Cytochrome P450 2C19 (Homo sapiens); assay: Cytochrome P450 Family 2 Subfamily C Member 19 (CYP2C19) small molecule antagonists: luciferase reporter qHTS assay (AID 1671197); settings: P450-Glo CYP2C19 enzyme, luciferin luminescence, 1 h; series mostly up to 115 µM; further: nearly all actives have a fitted effect of over 65% in size
Results filed as inconclusive are left out. Activity calls are given as the source filed them. Calls follow the shape of the dose curve; as a rule, active = well fitted inhibition curve with a large enough effect in the repeat runs; inconclusive = weak or mixed curves; inactive = no such curve, though single readings can be large or run the other way.
REPORTED_ENDPOINT: outcome

1. Clc1cc(Cl)c(Cl)cc1Cl	inactive
2. C=C1C2CCC(C2)C1(C)C (stereo not drawn)	inactive
3. CCCCCCCCCC(=O)O	inactive

----------
target: Glucocorticoid receptor (Homo sapiens) (UniProt P04150); assay: qHTS assay to identify small molecule antagonists of the glucocorticoid receptor (GR) signaling pathway (AID 720692); conditions: GR-bla HeLa, beta-lactamase FRET ratio, dexamethasone-stimulated, 18 h; series mostly up to 58.5 µM
Sequence (P04150 whole entry, looked up): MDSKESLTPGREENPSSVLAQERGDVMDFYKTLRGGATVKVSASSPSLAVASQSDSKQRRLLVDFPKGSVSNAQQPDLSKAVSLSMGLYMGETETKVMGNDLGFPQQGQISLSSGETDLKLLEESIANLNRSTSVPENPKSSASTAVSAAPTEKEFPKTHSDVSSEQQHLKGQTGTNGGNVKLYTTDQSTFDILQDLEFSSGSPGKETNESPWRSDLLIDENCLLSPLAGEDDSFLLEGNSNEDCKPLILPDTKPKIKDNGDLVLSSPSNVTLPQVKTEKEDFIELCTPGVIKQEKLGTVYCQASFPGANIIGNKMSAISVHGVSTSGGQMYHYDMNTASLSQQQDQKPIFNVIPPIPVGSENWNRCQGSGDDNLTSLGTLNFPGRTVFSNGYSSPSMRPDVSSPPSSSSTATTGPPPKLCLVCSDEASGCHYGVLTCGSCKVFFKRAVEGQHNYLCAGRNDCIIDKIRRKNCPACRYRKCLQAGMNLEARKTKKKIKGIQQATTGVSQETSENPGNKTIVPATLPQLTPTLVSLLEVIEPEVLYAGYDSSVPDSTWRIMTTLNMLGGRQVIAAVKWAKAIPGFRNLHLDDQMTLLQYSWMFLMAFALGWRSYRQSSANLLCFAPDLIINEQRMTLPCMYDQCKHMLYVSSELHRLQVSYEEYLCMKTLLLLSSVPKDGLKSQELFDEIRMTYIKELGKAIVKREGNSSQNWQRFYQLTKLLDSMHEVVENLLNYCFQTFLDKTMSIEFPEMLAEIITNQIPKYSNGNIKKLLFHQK
Records with an inconclusive call do not appear. Activity calls are given as the source filed them. Calls follow the shape of the dose curve; as a rule, active = well fitted inhibition curve with a large enough effect in the signal ratio in the repeat runs (not every such curve was filed as active); inconclusive = weak or mixed curves, or effect the other way; inactive = no such curve, though single readings can be large or run the other way; the % refers to the signal ratio.
Choose the fitting class; nothing outside active, inactive is accepted.

Solved entries (count: 5):
1) CCCCCCCCC	inactive
2) ClC1=C(Cl)C(Cl)(Cl)C(Cl)=C1Cl	active
3) NCc1cccc(CN)c1	inactive
4) COCC(C)O (stereo unspecified)	inactive
5) O=C(O)c1ccc([N+](=O)[O-])cc1	inactive

Q: Given `Cn1c([N+](=O)[O-])cnc1COC(N)=O` , state the outcome it received in this test.
Ans: inactive

Q: Tell me the recorded outcome of this test for `Clc1ccc(Cl)c(Cl)c1Cl` .
Ans: inactive

----------
test: qHTS assay for small molecule disruptors of the mitochondrial membrane potential (AID 720635); conditions: HepG2 mitochondrial membrane potential, Mito-MPS dye ratio; series mostly up to 83.2 µM
Inconclusive results are not listed. The source made the active and inactive calls. Calls come from the whole dose curve; as a rule, active = well fitted inhibition curve with a large enough effect in the signal ratio in the repeat runs; inconclusive = weak or mixed curves, or effect the other way; inactive = flat fitted curve, though single readings scatter; the % refers to the signal ratio.
REPORTED_ENDPOINT: outcome

Some solved cases for reference:
1) O=C(O)c1ccc([N+](=O)[O-])cc1	inactive
2) CCCCCCOC(C)=O	inactive
3) CCCCCCCCCCCCOCC1CO1 (centres undefined)	inactive
4) COC(=O)c1ccc(C(=O)OC)cc1	inactive
5) Cc1ccc(N)c(S(=O)(=O)O)c1	inactive
6) O=C(Cl)c1c(Cl)c(Cl)c(C(=O)Cl)c(Cl)c1Cl	inactive

// field: outcome; key: `CCOC(=O)[C@H](CCc1ccccc1)N[C@@H](C)C(=O)N1Cc2ccccc2C[C@H]1C(=O)O` ; value = inactive

For this compound ( `C=C(C)C(=O)OCC(CC)(COC(=O)C(=C)C)COC(=O)C(=C)C` ), measured outcome is inactive

Note to self: outcome recorded for `NC(=O)NNc1ccccc1` was inactive

The compound listed as `Cn1c([N+](=O)[O-])cnc1COC(N)=O` shows outcome equal to inactive
